Test system: SF-539 CNS
Experiment: NCI-60 one-dose screen, 48 h (100 = growth as untreated, 0 = no growth, -100 = all killed)
Conditions: 10 µM unless noted
This is part of a sample that, as a whole, favours compounds with a hit. Of some 83,000 tested, about 20% had one in any assay.
Please provide measured growth for the entries that follow.
Give bare numbers, in %.

>>> recorded_value("O=C(/C=C\\c1ccnc2ccccc12)c1ccc([N+](=O)[O-])cc1")
85.2
>>> recorded_value("O=C1c2ccccc2C(=O)N1/N=C/c1ccc2c(c1)OCO2")
101

Consider the additional molecule presented here.
Input: # lookup: growth of CC12CCC(CC1)C(C)(C)O2
Output: 103

---

Please provide measured growth for the entries that follow.
Test system: NCI-H522 lung
Assay: NCI-60 one-dose screen, 48 h (100 = growth as untreated, 0 = no growth, -100 = all killed)
Details: 10 µM unless noted
Description: Growth inhibition of the NCI-H522 human Non-Small Cell Lung tumor cell line is measured as a screen for anti-cancer activity. Cells are grown in 96 well plates and exposed to the test compound for 48 hours. Compounds are tested at a single concentration, which is 10^-5 M for most compounds. The reported endpoint is percent growth (GI% or GIPRCNT), where numbers from 0 - 100% represent growth inhibition, and numbers from -100% - 0 represent cell death. […]
This is part of a sample that, as a whole, favours compounds with a hit. Of some 83,000 tested, about 20% had one in any assay.
Give bare numbers, in %.

Provide growth values for the following items, in order.
1. CNC(=O)c1cccnc1
2. COc1ccccc1C(C)=O
3. CC[N+](CC)(CC(=O)Nc1c(C)cccc1C)Cc1ccccc1
4. S=C1SCN(Cc2ccccc2)CN1Cc1ccccc1
5. O=[N+]([O-])c1ccc(-n2[nH]nnc2=S)cc1
6. COc1ccc2ccccc2c1/C=N/N1CCCCC1

Output:
[91.4, 113, 92, 21.5, 91.3, 86.9]

Provide growth values for the following items, in order.
1. CC12CCC(CC1)C(C)(C)O2
2. c1ccc(N(c2ccccc2)c2ccccc2)cc1
3. O=C1c2ccccc2C(=O)N1/N=C/c1ccc2c(c1)OCO2
4. O=C(Oc1cccc(OC(=O)c2ccccc2)c1)c1ccccc1
5. O=C(Nc1cccc(-n2ccc3c(NC(=O)c4ccccc4)nccc32)c1)c1ccc(Cl)c(C(F)(F)F)c1
6. Cc1c(Cl)cccc1NCN1C(=O)c2ccccc2C1=O

Output:
95
95.9
64.5
108
82.8
81.1

---

Test system: SF-295 CNS
Assay: NCI-60 one-dose screen, 48 h (100 = growth as untreated, 0 = no growth, -100 = all killed)
Conditions: 10 µM unless noted
About 83,000 compounds went through this panel and 20% of them were active in at least one assay; those are over-represented in the sample as a whole.
Readout: growth (%)
Answers are plain numbers, in %.

Known results for compounds:
>>> recorded_value("COc1cc(C(=O)N/N=C/c2ccc(N(C)C)cc2)cc(OC)c1OC")
19.1
>>> recorded_value("CC(C)(C)c1ccc(O)c(CNC2CCCCC2)c1")
104
>>> recorded_value("O=C(O)c1cc(C(=O)O)cc([N+](=O)[O-])c1")
93.4
>>> recorded_value("N#C/C(=C/c1c(O)ccc2ccccc12)C(N)=O")
91.2
>>> recorded_value("O=[N+]([O-])c1ccc2nc3c4ccccc4c4ccccc4c3nc2c1")
107

Provide growth values for the following items, in order.
1. O=C1c2ccccc2C(=O)N1/N=C/c1ccc2c(c1)OCO2
2. NC(=O)c1ccccc1OCC(O)CO (centres undefined)
3. Oc1ccccc1C=NCC1CCC(CN=Cc2ccccc2O)CC1 (centres undefined)
4. Nc1ccccc1SC1CC(=O)N(c2cccc3ccccc23)C1=O (centres undefined)

Output:
[129, 83.1, 71.6, 94.7]
